Origin of values: ChEMBL document CHEMBL2203099

Target: Neuromedin-K receptor (Homo sapiens, UniProt P29371, Y315F)
Sequence (P29371 whole entry Y315F): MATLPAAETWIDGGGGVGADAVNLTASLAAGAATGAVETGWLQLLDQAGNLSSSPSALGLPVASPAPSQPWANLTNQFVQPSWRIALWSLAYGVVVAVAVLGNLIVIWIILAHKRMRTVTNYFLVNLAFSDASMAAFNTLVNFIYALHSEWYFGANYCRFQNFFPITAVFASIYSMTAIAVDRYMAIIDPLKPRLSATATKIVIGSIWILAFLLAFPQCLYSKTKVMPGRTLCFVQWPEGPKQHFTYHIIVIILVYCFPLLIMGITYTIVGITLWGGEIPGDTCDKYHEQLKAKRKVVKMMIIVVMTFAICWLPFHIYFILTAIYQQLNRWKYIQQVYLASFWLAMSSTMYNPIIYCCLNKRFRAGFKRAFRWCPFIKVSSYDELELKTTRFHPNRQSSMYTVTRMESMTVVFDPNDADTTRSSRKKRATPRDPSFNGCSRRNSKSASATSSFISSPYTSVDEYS
Assay: Displacement of radioligand [3H]osanetant at human NK3 Y315F6.51 mutant expressed in HEK293 cells
result.type: pKi
// returns pKi (minus log10 of molar concentration), number only

Request: Requested field: pKi. Item: `Cc1cc(F)ccc1-c1cc(N2CCN(S(C)(=O)=O)C[C@H]2CO)ncc1N(C)C(=O)C(C)(C)c1cc(C(F)(F)F)cc(C(F)(F)F)c1`
Result: 9.22

Request: And what about the compound `Cc1cc(F)ccc1-c1cc(N2CC[C@H](O)C2)ncc1N(C)C(=O)C(C)(C)c1cc(C(F)(F)F)cc(C(F)(F)F)c1` ?
Result: 8.60

Request: And what about the compound `Cc1cc(F)ccc1-c1cc(N2CCN(S(C)(=O)=O)CC2)ncc1N(C)C(=O)C(C)(C)c1cc(C(F)(F)F)cc(C(F)(F)F)c1` ?
Result: 9.15

Request: And what about the compound `Cc1cc(F)ccc1-c1cc(N2CCC[C@H]2CO)ncc1N(C)C(=O)C(C)(C)c1cc(C(F)(F)F)cc(C(F)(F)F)c1` ?
Result: 9.22

====

pKi values, listed per item
Target: Neuromedin-K receptor (Homo sapiens, UniProt P29371, Y315F)
Assay: Displacement of radioligand [3H]osanetant at human NK3 Y315F6.51 mutant expressed in HEK293 cells
// returns pKi (minus log10 of molar concentration), number only

Study these solved cases before continuing.
Cc1cc(F)ccc1-c1cc(N2CCN(S(C)(=O)=O)[C@@H](C)C2)ncc1N(C)C(=O)C(C)(C)c1cc(C(F)(F)F)cc(C(F)(F)F)c1	9.70
Cc1cc(F)ccc1-c1cc(N2CCC3(CC2)OCCS3(=O)=O)ncc1N(C)C(=O)C(C)(C)c1cc(C(F)(F)F)cc(C(F)(F)F)c1	9.00

Request: Requested field: pKi. Item: `Cc1cc(F)ccc1-c1cc(N2CC[C@H](O)[C@H]2CO)ncc1N(C)C(=O)C(C)(C)c1cc(C(F)(F)F)cc(C(F)(F)F)c1`
Result: 9.15
